- Protocol details: in vitro
- Experimental parameters: human, uninfected RBCs (red blood cells), 1% hematocrit
In this section we review reported hemolysis at 72 h, 5 x P. falciparum 3D7-IC50 values for a set of compounds.
Assay readout: hemolysis at 72 h, 5 x P. falciparum 3D7-IC50 (%)

1) CN(C)CCOc1ccc(-c2nc(-c3ccncc3)c(-c3ccc4c(c3)CC/C4=N\O)[nH]2)cc1 [SB590885] | 11
2) COc1ccc2c(c1)c(C1=C(c3c[nH]c4ccccc34)C(=O)NC1=O)cn2CCCN(C)C [Go6983] | 12
3) Cc1ccc(NC(=O)c2ccc(CN3CC[C@H](N(C)C)C3)c(C(F)(F)F)c2)cc1Nc1nccc(-c2cncnc2)n1 [Bafetinib] | 4
4) Oc1ccc2ccccc2c1SSc1c(O)ccc2ccccc12 [IPA-3] | 30
5) CCCC[C@@H](C=O)NC(=O)[C@H](CC(C)C)NC(=O)OCc1ccccc1 [Calpeptin] | 17
6) COc1ccc2c(c1)CCC1C2CCC2(C)C(NCCCCCCN3C(=O)C=CC3=O)CCC12 (stereo not drawn) [U-73122] | 13
7) Clc1ccc(C(c2ccc(Cl)cc2)n2cc[n+](CC(OCc3ccc(Cl)cc3Cl)c3ccc(Cl)cc3Cl)c2)cc1 (stereo not drawn) [Calmidazolium] | 14
8) Nc1nc(N)c2nc(-c3cccc(O)c3)c(-c3cccc(O)c3)nc2n1 [TG-100-115] | 18
9) Cn1nccc1Nc1nccc(-c2cc3c(s2)C(C)(C)N(CCN2CCOCC2)C3=O)n1 [LY3214996] | 16
10) CN(C)C[C@@H]1CCn2cc(c3ccccc32)C2=C(C(=O)NC2=O)c2cn(c3ccccc23)CCO1 [Ruboxistaurin] | 14
11) Clc1cccc(Cl)c1CSc1nnc(-c2cnccn2)s1 [Yoda1] | 57
12) CN1CCN(c2nc(C3=C(c4c[nH]c5ccccc45)C(=O)NC3=O)c3ccccc3n2)CC1 [Sotrastaurin] | 17

Every entry's value here was drawn from paper PMC10988762.
